# Protocol notes: Stability of cannabinoid and Vitamin E components of Beverage 1 (AB White) stored at 8° C. and 21-25° C., LCMSMS over 570 days
# Assay type: physicochemical
# Condition parameters: beverage stored at 8° C., day 90
Could you label it yes if measured Stability in AB White, 8° C. (content by LCMSMS) is 3 µg/mL or higher, and no otherwise?

- CCCCCc1cc(O)c2c(c1)OC(C)(C)c1ccc(C)cc1-2 [CBN, cannabinol]: no
- CCCc1cc(O)c2c(c1)OC(C)(C)[C@@H]1CCC(C)=C[C@@H]21 [THCV, delta-9-tetrahydrocannabivarin]: yes
- CCCCCc1cc(O)c(C/C=C(\C)CCC=C(C)C)c(O)c1 [CBG, cannabigerol]: yes
- CCCCCc1cc2c(c(O)c1C(=O)O)[C@@H]1C=C(C)CC[C@H]1C(C)(C)O2 [D9 THCA, delta-9-tetrahydrocannabinolic acid]: no
- CCCCCc1cc(O)c2c(c1)OC(C)(C)[C@@H]1CCC(C)=C[C@@H]21 [D9 THC, delta-9-tetrahydrocannabinol, reference compound]: yes
- CCCCCc1cc(O)c2c(c1)OC1(C)CCC3C1C2C3(C)C (stereo not shown) [CBL, cannabicyclol]: no
- C=C(C)[C@@H]1CCC(C)=C[C@H]1c1c(O)cc(CCCCC)c(C(=O)O)c1O [CBDA, cannabidiolic acid]: no
- C=C(C)[C@@H]1CCC(C)=C[C@H]1c1c(O)cc(CCCCC)cc1O [CBD, cannabidiol, reference compound]: yes
- C=C(C)[C@@H]1CCC(C)=C[C@H]1c1c(O)cc(CCC)cc1O [CBDV, cannabidivarin]: no
- CCCCCc1cc(O)c2c(c1)OC(C)(CCC=C(C)C)C=C2 (stereo not shown) [CBC, cannabichromene]: no

====

# Protocol notes: Stability of cannabinoid and Vitamin E components of Beverage 2 (AB Red) stored at 8° C. and 21-25° C., LCMSMS over 570 days
# Condition parameters: 8° C., 180 days
Label rule, in plain words: Stability of Cannabinoids in AB Red of 3 µg/mL and up is Y, under 3 µg/mL is N.

- CCCc1cc(O)c2c(c1)OC(C)(C)[C@@H]1CCC(C)=C[C@@H]21 [THCV, delta-9-tetrahydrocannabivarin]: Y
- C=C(C)[C@@H]1CCC(C)=C[C@H]1c1c(O)cc(CCC)cc1O: N
- CCCCCc1cc(O)c2c(c1)OC1(C)CCC3C1C2C3(C)C (centres unmarked): N
- CCCCCc1cc(O)c2c(c1)OC(C)(C)[C@@H]1CCC(C)=C[C@@H]21 [D9 THC, delta-9-tetrahydrocannabinol, reference compound]: Y
- CCCCCc1cc(O)c(C/C=C(\C)CCC=C(C)C)c(O)c1: Y

====

Stability in Powder Concentrate (content by LCMSMS) values by entry
# Assay type: physicochemical
# Condition parameters: stored at room temperature (21-25° C.), day 360
Readout label: Stability in Powder Concentrate (content by LCMSMS)

- CCCCCc1cc2c(c(O)c1C(=O)O)[C@@H]1C=C(C)CC[C@H]1C(C)(C)O2 [D9 THCA, delta-9-tetrahydrocannabinolic acid]: 0.155 mg/g powder
- CCCCCc1cc(O)c(C/C=C(\C)CCC=C(C)C)c(O)c1: 1.09 mg/g powder
- CCCCCc1cc(O)c2c(c1)OC(C)(C)c1ccc(C)cc1-2: 0.499 mg/g powder
- CCCCCc1cc(O)c2c(c1)OC(C)(CCC=C(C)C)C=C2 (stereo not shown): 0.068 mg/g powder
- Cc1c(C)c2c(c(C)c1OC(=O)CCC(=O)O)CC[C@@](C)(CCC[C@H](C)CCC[C@H](C)CCCC(C)C)O2 [α-Tocopheryl succinate]: 1.79 mg/g powder
- CC(=O)Oc1c(C)c(C)c2c(c1C)CCC(C)(CCC[C@H](C)CCC[C@H](C)CCCC(C)C)O2 (stereo partly drawn) [α-Tocopheryl acetate]: 2.12 mg/g powder
- CCCCCc1cc(O)c2c(c1)OC(C)(C)[C@@H]1CCC(C)=C[C@@H]21 [D9 THC, delta-9-tetrahydrocannabinol, reference compound]: 2.58 mg/g powder

====

# Protocol notes: Stability of cannabinoid and Vitamin E components of Beverage 2 (AB Red) stored at 8° C. and 21-25° C., LCMSMS over 570 days
# Condition parameters: 21-25° C., 1 days
Items are presented alongside their recorded Stability of Cannabinoids in AB Red.
Readout label: Stability of Cannabinoids in AB Red (µg/mL)

• C=C(C)[C@@H]1CCC(C)=C[C@H]1c1c(O)cc(CCC)cc1O [CBDV, cannabidivarin] = 0.20
• CCCc1cc(O)c2c(c1)OC(C)(C)[C@@H]1CCC(C)=C[C@@H]21 [THCV, delta-9-tetrahydrocannabivarin] = 3.13
• CCCCCc1cc(O)c2c(c1)OC(C)(CCC=C(C)C)C=C2 (stereo not drawn) [CBC, cannabichromene] = 0.28
• C=C(C)[C@@H]1CCC(C)=C[C@H]1c1c(O)cc(CCCCC)c(C(=O)O)c1O [CBDA, cannabidiolic acid] = 1.70
• CCCCCc1cc2c(c(O)c1C(=O)O)[C@@H]1C=C(C)CC[C@H]1C(C)(C)O2 [D9 THCA, delta-9-tetrahydrocannabinolic acid] = 1.34
• CCCCCc1cc(O)c2c(c1)OC(C)(C)c1ccc(C)cc1-2 [CBN, cannabinol] = 2.73
• CCCCCc1cc(O)c2c(c1)OC(C)(C)[C@@H]1CCC(C)=C[C@@H]21 [D9 THC, delta-9-tetrahydrocannabinol, reference compound] = 13.0
• CCCCCc1cc(O)c(C/C=C(\C)CCC=C(C)C)c(O)c1 [CBG, cannabigerol] = 4.57
• CCCCCc1cc(O)c2c(c1)OC1(C)CCC3C1C2C3(C)C (stereo not drawn) [CBL, cannabicyclol] = 0.50

====

# Protocol notes: Stability of cannabinoid and Vitamin E components of Beverage 1 (AB White) stored at 8° C. and 21-25° C., LCMSMS over 570 days
# Format: physicochemical
# Condition parameters: beverage stored at 21-25° C., day 11
Listed here are molecules together with their documented Stability in AB White, 21-25° C. (content by LCMSMS).
Readout label: Stability in AB White, 21-25° C. (content by LCMSMS) (µg/mL)

- CCCCCc1cc(O)c2c(c1)OC(C)(C)c1ccc(C)cc1-2 [CBN, cannabinol]: 2.80
- CCCCCc1cc(O)c2c(c1)OC(C)(CCC=C(C)C)C=C2 (stereo not drawn) [CBC, cannabichromene]: 0.311
- CCCCCc1cc(O)c2c(c1)OC1(C)CCC3C1C2C3(C)C (stereo not drawn) [CBL, cannabicyclol]: 0.552
- CCCCCc1cc(O)c2c(c1)OC(C)(C)[C@@H]1CCC(C)=C[C@@H]21 [D9 THC, delta-9-tetrahydrocannabinol, reference compound]: 12.1
- CCCCCc1cc2c(c(O)c1C(=O)O)[C@@H]1C=C(C)CC[C@H]1C(C)(C)O2 [D9 THCA, delta-9-tetrahydrocannabinolic acid]: 0.949
- C=C(C)[C@@H]1CCC(C)=C[C@H]1c1c(O)cc(CCCCC)c(C(=O)O)c1O [CBDA, cannabidiolic acid]: 1.76
- CCCc1cc(O)c2c(c1)OC(C)(C)[C@@H]1CCC(C)=C[C@@H]21 [THCV, delta-9-tetrahydrocannabivarin]: 3.59
- CCCCCc1cc(O)c(C/C=C(\C)CCC=C(C)C)c(O)c1 [CBG, cannabigerol]: 4.74
- C=C(C)[C@@H]1CCC(C)=C[C@H]1c1c(O)cc(CCC)cc1O [CBDV, cannabidivarin]: 0.150

====

# Protocol notes: Stability of cannabinoid and Vitamin E components of Beverage 2 (AB Red) stored at 8° C. and 21-25° C., LCMSMS over 570 days
# Condition parameters: 21-25° C., 15 days
Measured Stability of Cannabinoids in AB Red accompanies every entry in the list below.
Readout label: Stability of Cannabinoids in AB Red

• C=C(C)[C@@H]1CCC(C)=C[C@H]1c1c(O)cc(CCC)cc1O = 0.20 µg/mL
• CCCc1cc(O)c2c(c1)OC(C)(C)[C@@H]1CCC(C)=C[C@@H]21 [THCV, delta-9-tetrahydrocannabivarin] = 3.20 µg/mL
• CCCCCc1cc(O)c2c(c1)OC1(C)CCC3C1C2C3(C)C (stereo not shown) = 0.50 µg/mL
• CCCCCc1cc(O)c(C/C=C(\C)CCC=C(C)C)c(O)c1 = 4.80 µg/mL

====

# Stability in AB White, 21-25° C. (content by LCMSMS) annotations
# Protocol notes: Stability of cannabinoid and Vitamin E components of Beverage 1 (AB White) stored at 8° C. and 21-25° C., LCMSMS over 570 days
# Assay type: physicochemical
# Condition parameters: beverage stored at 21-25° C., day 17
Readout label: Stability in AB White, 21-25° C. (content by LCMSMS) (µg/mL)

- CCCCCc1cc(O)c2c(c1)OC(C)(CCC=C(C)C)C=C2 (stereo not drawn) [CBC, cannabichromene]: 0.323
- CCCCCc1cc(O)c(C/C=C(\C)CCC=C(C)C)c(O)c1 [CBG, cannabigerol]: 4.80
- CCCc1cc(O)c2c(c1)OC(C)(C)[C@@H]1CCC(C)=C[C@@H]21 [THCV, delta-9-tetrahydrocannabivarin]: 3.51
- C=C(C)[C@@H]1CCC(C)=C[C@H]1c1c(O)cc(CCC)cc1O [CBDV, cannabidivarin]: 0.150
- CCCCCc1cc2c(c(O)c1C(=O)O)[C@@H]1C=C(C)CC[C@H]1C(C)(C)O2 [D9 THCA, delta-9-tetrahydrocannabinolic acid]: 0.919
- CCCCCc1cc(O)c2c(c1)OC(C)(C)[C@@H]1CCC(C)=C[C@@H]21 [D9 THC, delta-9-tetrahydrocannabinol, reference compound]: 11.9
- CCCCCc1cc(O)c2c(c1)OC1(C)CCC3C1C2C3(C)C (stereo not drawn) [CBL, cannabicyclol]: 0.554
- CCCCCc1cc(O)c2c(c1)OC(C)(C)c1ccc(C)cc1-2 [CBN, cannabinol]: 2.70
- C=C(C)[C@@H]1CCC(C)=C[C@H]1c1c(O)cc(CCCCC)c(C(=O)O)c1O [CBDA, cannabidiolic acid]: 1.72
